experimental protocol: Solubility of Compound A in FaSSIF
Type: physicochemical
cond: 37 °C
metric: solubility (µg/mL)
Report as a plain number; the unit µg/mL is understood.

Please indicate solubility recorded for "O=C(Nc1ccnc(C(F)(F)F)c1)c1cnn(-c2cccc3c(=O)[nH]ccc23)c1C(F)(F)F" 29.7
